Measured Plant response rating, Sorghum accompanies every entry in the list below.
Test system: sorghum
Test Protocol: Test B preemergence/postemergence greenhouse plant response rating 0 to 10
Assay type: in vivo, Sorghum bicolor
Measurement Parameters: Rate 200 g/ha, PREEMERGENCE; 0 to 10 scale
Output: the number by itself.

Check out these entries, answers already filled in.
[[record]]
molecule = "CCC(C)Oc1cc(-c2nn3c(c2Cl)CCCC3)c(F)cc1Cl (stereo not drawn)"
measured_result = 1

[[record]]
molecule = "CCOC(=O)COc1cc(-c2nn3c(c2Cl)CCCC3)c(F)cc1Cl"
measured_result = 0

[[record]]
molecule = "Fc1cc(Cl)c(OCc2ccccc2)cc1-c1nn2c(c1Cl)CCCC2"
measured_result = 3

[[record]]
molecule = "COc1cc(-c2nn3c(c2Cl)CCCC3)c(F)cc1Cl"
measured_result = 1

[[record]]
molecule = "CC(C)COc1cc(-c2nn3c(c2Cl)CCCC3)c(F)cc1Cl"
measured_result = 0


In the following, a different molecule is considered.
I would be grateful if you could share the reported Plant response rating, Sorghum for CC(C)Oc1cc(-c2nn3c(c2Br)CCCC3)c(F)cc1Cl .
1
